system: Lactobacillus gasseri; assay: growth AUC relative to DMSO control (median of replicates) (fraction); higher = more growth (less inhibition), active = hit call of the paper; settings: 20 µM; 24 h
growth AUC values, listed per item
Output: the number by itself.

COMPOUND	growth AUC
CON=C(Cc1cccnc1)c1ccc(Cl)cc1Cl	1.03

Exercise: I have this compound here, CCCCCCC(C)OC(=O)C(C)Oc1ccc(Cl)cc1C (configuration not stated) , and I need its recorded growth AUC.
Solution: 1

Exercise: I have this compound here, O=C(O)Cc1c(Cl)ccc(Cl)c1Cl , and I need its recorded growth AUC.
Solution: 1.06

Exercise: I have this compound here, C[S+](C)CCC(=O)O.[Cl-] , and I need its recorded growth AUC.
Solution: 1.08

Exercise: I have this compound here, [S] , and I need its recorded growth AUC.
Solution: 0.959

Exercise: I have this compound here, CCCCOCCOC(=O)COc1ccc(Cl)cc1Cl , and I need its recorded growth AUC.
Solution: 0.88

Exercise: I have this compound here, COC(=O)c1csc(C)c1S(=O)(=O)NC(=O)n1nc(OC)n(C)c1=O , and I need its recorded growth AUC.
Solution: 0.805
